Attribution: paper PMC10786891

# system-name: T1, EsCas13d, nuclease-dead (Eubacterium siraeum, UniProt B0MS50, R295A;H300A;R849A;H854A)
# T1 sequence: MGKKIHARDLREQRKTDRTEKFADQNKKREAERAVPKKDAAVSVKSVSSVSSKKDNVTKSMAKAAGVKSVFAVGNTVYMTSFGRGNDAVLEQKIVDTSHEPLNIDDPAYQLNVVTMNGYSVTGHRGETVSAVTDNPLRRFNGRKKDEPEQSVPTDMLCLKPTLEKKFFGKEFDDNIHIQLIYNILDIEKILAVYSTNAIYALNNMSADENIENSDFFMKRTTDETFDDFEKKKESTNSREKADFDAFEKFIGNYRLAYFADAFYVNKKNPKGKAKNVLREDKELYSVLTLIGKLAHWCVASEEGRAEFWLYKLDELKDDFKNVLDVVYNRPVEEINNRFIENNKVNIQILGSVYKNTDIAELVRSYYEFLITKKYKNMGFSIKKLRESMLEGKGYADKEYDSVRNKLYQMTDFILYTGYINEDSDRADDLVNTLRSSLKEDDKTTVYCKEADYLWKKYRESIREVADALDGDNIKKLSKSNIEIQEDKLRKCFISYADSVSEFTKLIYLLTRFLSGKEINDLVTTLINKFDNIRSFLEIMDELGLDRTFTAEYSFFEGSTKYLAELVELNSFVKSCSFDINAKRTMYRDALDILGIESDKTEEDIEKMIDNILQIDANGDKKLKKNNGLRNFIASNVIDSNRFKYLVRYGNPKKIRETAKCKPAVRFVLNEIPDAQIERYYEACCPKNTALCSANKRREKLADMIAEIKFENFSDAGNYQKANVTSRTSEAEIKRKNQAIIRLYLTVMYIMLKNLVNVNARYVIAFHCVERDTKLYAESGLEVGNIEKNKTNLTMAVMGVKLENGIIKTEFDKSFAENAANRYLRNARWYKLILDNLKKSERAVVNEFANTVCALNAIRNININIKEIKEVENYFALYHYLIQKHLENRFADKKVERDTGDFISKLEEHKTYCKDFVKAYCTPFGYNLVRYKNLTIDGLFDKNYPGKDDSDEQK
# protocol-text: crRNA (strand 1, pre-loaded); Mg2+; 40 mM Tris-HCl pH 7.5, 150 mM NaCl, 6 mM MgCl2, 1 mM DTT, 0.1% Tween-20, 0.2 mg/ml BSA; 25 C; 10 min per concentration, then washed
# condition-description: tags: His6-TwinStrep-SUMO cleaved; N-terminal SNAP kept (SNAP-Surface 488); label: 3' end held by stalled T7 RNA polymerase
Attribute: Kd
measurement-name: Kd (nM)

{"binder": "target 1 MT 5'PFS UCG 3'PFS ACC (mixed) RNA 1: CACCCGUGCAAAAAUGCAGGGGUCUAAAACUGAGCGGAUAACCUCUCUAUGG RNA 2: GGGAAUGGAUCCACAUCUACGAAUUCUCGCCAUAGAGAGGUUAUCCGCUCAACCAGAUCGGAAGAGCACACGU", "measurement-name": "Kd", "reading": 32.5}
{"binder": "target 1 insG 3' of 16,insA 3' of 15 (mixed) RNA 1: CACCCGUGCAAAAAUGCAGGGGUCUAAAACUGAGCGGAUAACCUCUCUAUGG RNA 2: GGGAAUGGAUCCACAUCUACGAAUUCGUACCAUAGAGGAAGGUUAUCCGCUCACCGAGAUCGGAAGAGCACACGU", "measurement-name": "Kd", "reading": 17.5}
{"binder": "target 3 insA 3' of 10,insU 3' of 5 (mixed) RNA 1: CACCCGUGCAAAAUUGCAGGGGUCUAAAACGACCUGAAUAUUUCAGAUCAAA RNA 2: GGGAAUGGAUCCACAUCUACGAAUUCGUUUUUGAUCUGAAAUAAUUCAUGGUCUGCAGAUCGGAAGAGCACACGU", "measurement-name": "Kd", "reading": 58.5}
{"binder": "target 2 MT 5'PFS GGG 3'PFS ACU (mixed) RNA 1: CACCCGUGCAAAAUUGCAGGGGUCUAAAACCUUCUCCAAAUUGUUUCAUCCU RNA 2: GGGAAUGGAUCCACAUCUACGAAUUCGGGAGGAUGAAACAAUUUGGAGAAGACUAGAUCGGAAGAGCACACGU", "measurement-name": "Kd", "reading": 9.3}
{"binder": "target 2 MT 5'PFS CUU 3'PFS CUG (mixed) RNA 1: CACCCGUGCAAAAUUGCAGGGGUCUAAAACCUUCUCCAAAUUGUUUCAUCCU RNA 2: GGGAAUGGAUCCACAUCUACGAAUUCCUUAGGAUGAAACAAUUUGGAGAAGCUGAGAUCGGAAGAGCACACGU", "measurement-name": "Kd", "reading": 4.2}
